- System: K-562 leukemia
- protocol_text: NCI-60 one-dose screen, 48 h (100 = growth as untreated, 0 = no growth, -100 = all killed)
- reported_conditions: 10 µM unless noted
- Protocol: Cells are grown in 96 well plates and exposed to the test compound for 48 hours. Compounds are tested at a single concentration, which is 10^-5 M for most compounds. The reported endpoint is percent growth (GI% or GIPRCNT), where numbers from 0 - 100% represent growth inhibition, and numbers from -100% - 0 represent cell death. For example, a value of 40 represents 60% growth inhibition. A value of 0 means no net growth occurred over the course of the experiment. […]
The panel holds about 83,000 compounds, 20% with a hit somewhere; the sample as a whole holds those more often.
Response key: satisfied means growth >= 20%; not satisfied means growth < 20%.

{"columns": ["compound", "target_system", "classification"],
 "data": [
  ["Cc1cc(NC(=O)COC(=O)c2sc3cc(F)ccc3c2Cl)no1", "K-562 leukemia", "satisfied"],
  ["COc1ccc(-c2nc3sccn3c2-c2ccnc(NCCCNS(=O)(=O)c3ccc(F)cc3)n2)cc1", "K-562 leukemia", "not satisfied"],
  ["C=CCc1cc(Cl)cc2c(OC(C)=O)c(C(C)=O)c(-c3ccccc3)nc12", "K-562 leukemia", "satisfied"],
  ["O=S(=O)(NCCNc1cc(-c2cn(-c3ccccc3)nc2-c2ccccc2)ccn1)c1cccc2ccccc12", "K-562 leukemia", "satisfied"],
  ["O=C(O)C(Cc1ccccc1)N1C(=O)/C(=C/C(Cl)=C/c2ccc([N+](=O)[O-])cc2)SC1=S (stereo not given)", "K-562 leukemia", "not satisfied"]
]}

---

- Tested on: MOLT-4 leukemia
- protocol_text: NCI-60 one-dose screen, 48 h (100 = growth as untreated, 0 = no growth, -100 = all killed)
- reported_conditions: 10 µM unless noted
- Protocol: Growth inhibition of the MOLT-4 human tumor cell line is measured as a screen for anti-cancer activity. Cells are grown in 96 well plates and exposed to the test compound for 48 hours. Compounds are tested at a single concentration, which is 10^-5 M for most compounds. The reported endpoint is percent growth (GI% or GIPRCNT), where numbers from 0 - 100% represent growth inhibition, and numbers from -100% - 0 represent cell death. For example, a value of 40 represents 60% growth inhibition. […]
About 83,000 compounds went through this panel and 20% of them were active in at least one assay; those are over-represented in the sample as a whole. Calls of active or inactive are those of the source. Rule for the calls: active = growth percent below 10; inactive = the rest.

{"columns": ["compound", "growth"],
 "data": [
  ["Clc1nc2ccccc2nc1CI", "20.2% (inactive)"],
  ["CCC1CCc2nc3sc(C(=O)Nc4ccccc4C)c(N)c3cc2C1 (stereo unspecified)", "39.7% (inactive)"],
  ["CCC1=C[C@@H]2CN(C1)Cc1c([nH]c3ccccc13)[C@@](C(=O)OC)(c1cc3c(cc1OC)N(C=O)[C@H]1[C@@](O)(C(=O)OC)[C@H](OC(C)=O)[C@]4(CC)[C@@H]5C[C@@H]5CN5CC[C@]31[C@@H]54)C2", "13.4% (inactive)"],
  ["Clc1ccc(-c2nc(-c3ccco3)cn3ccnc23)cc1", "80% (inactive)"],
  ["Nc1c(C(=O)Nc2cccc(C(F)(F)F)c2)sc2nc3c(cc12)CCCCC3", "83% (inactive)"],
  ["c1ccc2c(c1)Oc1ccccc1C2C1c2ccccc2Oc2ccccc21", "79.5% (inactive)"],
  ["COc1cc2nc(Cl)nc(NCCO)c2cc1OC", "101% (inactive)"],
  ["COc1ccc(-c2cn[nH]c2-c2cc(OC)c3c(c2)OCO3)cc1", "3.98% (active)"],
  ["CNC(=O)Cc1nc(-c2cccc(NS(=O)(=O)c3c(F)cccc3F)c2F)c(-c2ccnc(Nc3ccccc3)n2)s1", "68.4% (inactive)"],
  ["O=C(O)c1ccc(-n2c(=O)c3ccccc3c3ccccc3c2=O)cc1", "92.8% (inactive)"],
  ["C#CCN1C(=O)/C(=c2\\sc3n(c2=O)NC2C(N=3)N(CC)C(=O)N2CC)c2ccccc21 (stereo unspecified)", "68.5% (inactive)"]
]}

---

This listing pairs molecules with measured growth.
- System: CCRF-CEM leukemia
- protocol_text: NCI-60 one-dose screen, 48 h (100 = growth as untreated, 0 = no growth, -100 = all killed)
- reported_conditions: 10 µM unless noted
About 83,000 compounds went through this panel and 20% of them were active in at least one assay; those are over-represented in the sample as a whole.
measured_metric: growth (%)

{"columns": ["molecule", "target_system", "experimental_result"],
 "data": [
  ["Cc1ccc(S(=O)(=O)OCC(=O)Nc2ccc(C(=O)O)c(O)c2)cc1", "CCRF-CEM leukemia", 83.5],
  ["CCN(CC)P(=O)(N(CC)CC)N(CCCSC/C=C(\\C)CC/C=C(\\C)CCC=C(C)C)CCCN1CCN(C)CC1", "CCRF-CEM leukemia", 87.2],
  ["Clc1ccc(-c2nc(-c3ccco3)cn3ccnc23)cc1", "CCRF-CEM leukemia", 78.4],
  ["COc1ccc(NC(=O)CSc2nc3ccccc3c(=O)n2-c2ccccc2C(F)(F)F)c(OC)c1OC", "CCRF-CEM leukemia", 101],
  ["O=C(NCCCN1CCN(CCCNC(=O)C2CCCCC2)CC1)C1CCCCC1", "CCRF-CEM leukemia", 91.9],
  ["COc1ccc(S(=O)(=O)Nc2cc(/C=C\\c3cc(OC)c(OC)c(OC)c3)cc(OC)c2OC)cc1OC", "CCRF-CEM leukemia", 9.18],
  ["O=C(Nc1ccc(I)cc1)c1cccc([N+](=O)[O-])c1O", "CCRF-CEM leukemia", 25.9],
  ["CCCCCCc1nc2c(c(C)nn2-c2ccccc2)c2c1CCCCC2", "CCRF-CEM leukemia", 101],
  ["CN1CCN(c2ccc3cc(-c4nc5ccccc5[nH]4)c(=O)oc3c2)CC1", "CCRF-CEM leukemia", 73.6],
  ["CCC(c1ccc(OC)cc1)C(CC)c1ccc(OCC[N+](C)(C)C)cc1 (stereo not given)", "CCRF-CEM leukemia", 58.8],
  ["CC(C)C[C@H](NC(=O)[C@@H](Cc1ccccc1)n1ccc(Nc2ccccc2)cc1=O)B(O)O", "CCRF-CEM leukemia", -5.5],
  ["O=C1c2ccccc2C(=O)c2c1oc1oc3c(c(=O)c21)c(=O)n(-c1ccccc1)c1ccccc31", "CCRF-CEM leukemia", 17.8],
  ["COC1=CC(c2ccc[nH]2)=N/C1=C\\c1[nH]c(C)c(CCCn2cc(CCCCCCCCC[C@@H]3Cc4cc(O)ccc4C4CC[C@]5(C)[C@@H](O)CC[C@H]5C43)nn2)c1C (stereo not given in full)", "CCRF-CEM leukemia", 28.1],
  ["Nc1nc(-c2ccccc2)cs1", "CCRF-CEM leukemia", 110],
  ["Oc1ccc(Cl)cc1-c1cc(-c2ccc(Cl)cc2)n[nH]1", "CCRF-CEM leukemia", 36.7],
  ["Nc1c(C(=O)Nc2cccc(C(F)(F)F)c2)sc2nc3c(cc12)C(O)CCC3 (stereo not given)", "CCRF-CEM leukemia", 14.5],
  ["CCOC(=O)C1=C(C)NC(=O)NC1c1ccc(OCC(=O)N/N=C/c2ccc(Cl)cc2)cc1 (stereo not given)", "CCRF-CEM leukemia", 92.1],
  ["C=C1C(=O)O[C@H]2[C@H]1CC/C(COC(=O)NCCc1ccc(Br)cc1)=C\\CC[C@@]1(C)O[C@@H]21", "CCRF-CEM leukemia", 4],
  ["O=c1cc(C2NCCc3c2[nH]c2ccccc32)c2c(ccc3ccccc32)o1 (stereo not given)", "CCRF-CEM leukemia", 77.8],
  ["CC/C=C\\C/C=C\\C[C@H]1C/C=C2/C(=O)C=C[C@H]2C/C=C\\CCC(=O)O1", "CCRF-CEM leukemia", 3.86]
]}

---

- System: MDA-MB-231 breast
- protocol_text: NCI-60 one-dose screen, 48 h
- reported_conditions: 10 µM unless noted
- Protocol: Cells are grown in 96 well plates and exposed to the test compound for 48 hours. Compounds are tested at a single concentration, which is 10^-5 M for most compounds. The reported endpoint is percent growth (GI% or GIPRCNT), where numbers from 0 - 100% represent growth inhibition, and numbers from -100% - 0 represent cell death. For example, a value of 40 represents 60% growth inhibition. A value of 0 means no net growth occurred over the course of the experiment. […]
This is part of a sample that, as a whole, favours compounds with a hit. Of some 83,000 tested, about 20% had one in any assay. Activity calls are given as the source filed them. How the source made its calls: active means growth percent below 10; inactive means the rest.
Outcomes: class 1 for active, class 0 for inactive

{"columns": ["molecule", "classification"],
 "data": [
  ["CN(C)c1ccc(/C=C\\N=Nc2ccc(Br)cc2)cc1", "class 0"],
  ["COc1cc(C(=O)CCCl)ccc1O", "class 0"],
  ["COc1ccc(C2CC(c3cccs3)=NN2c2ccc(S(=O)(=O)NC(=O)Nc3ccc(C)cc3)cc2)cc1 (stereo not given)", "class 0"],
  ["Cc1nn(-c2ccc(Cl)cc2)c(=O)n1CCOc1ccccc1Cl", "class 0"],
  ["CNC(=O)Cc1nc(-c2cccc(NS(=O)(=O)c3c(F)cccc3F)c2F)c(-c2ccnc(Nc3ccccc3)n2)s1", "class 1"]
]}
